- System: HT29 colon
- Measurement Protocol: NCI tumour cell line growth inhibition, 48 h
Readout Label: TGI

Solved entries (count: 5):
# value lookup — system HT29 colon, readout TGI, item C[C@]12CC[C@@H]3c4ccc(OP(=O)(O)O)cc4CC[C@H]3[C@@H]1CCC2=O
> 100 µM

I'm curious: which TGI was measured for CC[C@H]1C=CCC[C@@]2(C[C@@H]3CC[C@@H]4[C@H](C(=O)OCCCCCCCCCCCCCCCC(=O)O)[C@]5(CCC[C@@H](C)O5)NC(=[N+]34)N2)O1 tested on HT29 colon?
5.61 µM

Request - read-out TGI | tested on HT29 colon | compound O=[N+]([O-])C(C(Cl)=C(Cl)Cl)=C(N(Cc1ccccc1)Cc1ccccc1)N(Cc1ccccc1)Cc1ccccc1
> 100 µM

# value lookup — system HT29 colon, readout TGI, item COc1cc(C(=O)C/C(CCCC(=O)Nc2ccccc2[N+](=O)[O-])=N/NC(=O)c2cc3ccccc3cc2O)ccc1O
> 100 µM

# get_value(readout= TGI, system= HT29 colon) for C=CCOc1ccc(/C(N=Nc2ccc([N+](=O)[O-])cc2)=N/NC(=O)c2ccccc2)cc1OC
> 100 µM

***
Missing value: TGI, HT29 colon, entry c1ccc([P+](Cc2ccc(C[P+](c3ccccc3)(c3ccccc3)c3ccccc3)cc2)(c2ccccc2)c2ccccc2)cc1 . Fill in?
> 100 µM

What TGI appears in the records for this compound with HT29 colon? CCCC(C)c1cc(Cc2cc(Cl)cc(Cl)c2O)c(O)c(Cc2cc(Cl)cc(Cl)c2O)c1 (stereo not drawn)
11.2 µM

Please state recorded TGI (tested on HT29 colon) of CCOC(=O)c1cc(NS(=O)(=O)c2ccccc2)cc(C(=O)OCC)c1
> 100 µM
